# target: Dual specificity mitogen-activated protein kinase kinase 1 (Homo sapiens)
# Sequence (Q02750 whole entry): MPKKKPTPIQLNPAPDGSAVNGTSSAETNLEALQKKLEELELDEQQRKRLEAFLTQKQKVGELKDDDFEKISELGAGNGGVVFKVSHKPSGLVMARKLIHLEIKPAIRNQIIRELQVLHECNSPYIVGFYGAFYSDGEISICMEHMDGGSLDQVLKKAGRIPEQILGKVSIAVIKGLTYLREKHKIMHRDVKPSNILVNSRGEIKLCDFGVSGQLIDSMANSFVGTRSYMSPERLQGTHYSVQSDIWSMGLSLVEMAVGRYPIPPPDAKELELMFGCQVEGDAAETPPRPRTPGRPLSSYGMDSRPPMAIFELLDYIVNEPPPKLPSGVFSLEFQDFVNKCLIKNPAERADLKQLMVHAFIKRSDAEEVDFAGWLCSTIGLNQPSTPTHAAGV
# assayComment: Inhibition of ERK-phosphorylation by MEK-ERK in direct ELISA
pIC50: −log10 of the molar value.
measuredAttribute: pIC50

Take a look at these entries with their results.
| molecule | result |
| --- | --- |
| COc1cc2ncc(C#N)c(Nc3ccccc3Oc3ccccc3)c2cc1OC | < 5.00 |
| COc1cc2c(Nc3ccc(Oc4ccccc4)cc3)c(C#N)cnc2c(OC)c1OC | < 5.00 |
| COc1cc2c(Nc3ccc(Oc4ccccc4)cc3)c(C#N)cnc2cc1OCCCN1CCOCC1 | 8.15 |
| COc1cccc2c(Nc3ccc(Oc4ccccc4)cc3)c(C#N)cnc12 | < 5.00 |

Please find the next molecule below.
Qu. # return recorded pIC50 for input `COc1ccc(OC)c2c(Nc3ccc(Oc4ccccc4)cc3)c(C#N)cnc12`
Ans. < 5.00

Data credit: ChEMBL document CHEMBL1133366
